Experiment: Pharmacokinetic evaluation after intravenous or gavage administration to rats
Format: in vivo, SD rats
Conditions: Sprague-Dawley (SD), rat, plasma, iv, i.v group, 1 mg/kg
Reported MRT inf is given for each of the following molecules.

# Entry Smiles, Test Result
records = [
    ("CONC(=O)Nc1ccc(-c2sc3c(c2CN(C)C)c(=O)n(-c2ccc(-n4nccn4)cn2)c(=O)n3Cc2c(F)cccc2F)cc1", "1.22 h"),
]

Now consider a different molecule.
query: What does the record list as MRT inf for CONC(=O)Nc1ccc(-c2sc3c(c2CN(C)C)c(=O)n(-c2ccc(-n4cccn4)nc2)c(=O)n3Cc2c(F)cccc2F)cc1 ?
result: 4.58 h
